Provide the reported TGI of each item.
- Test system: DLD-1 colon
- PROTOCOL DETAILS: NCI tumour cell line growth inhibition, 48 h

Query block: Looking for the measured TGI of NC1=NN(c2ccccc2)C(=O)C1/C(=N\NC(=O)c1cc2ccccc2cc1O)C(=O)Nc1nc([N+](=O)[O-])cs1 (stereo unspecified) , can you help?
Result block: > 77.2 µM

Query block: May I ask what TGI has been recorded for C=C(C)C1CC2=C(O1)C(=O)c1ccccc1C2=O (stereo unspecified) ?
Result block: 52.1 µM

Query block: What does the data say about its TGI? Entry: Cc1nc2nn(Cc3ccccc3)cc2c(=O)o1
Result block: > 100 µM

Query block: Find the recorded TGI belonging to COc1ccc2nc3ccccc3c(NCCCCCN(CCCl)CCCl)c2c1 and report it.
Result block: 0.793 µM

Query block: Form field: reported TGI of COc1cc2c(cc1OC)C(=O)Cc1ccc3c(c1CNCC2)OCO3
Result block: > 100 µM

Query block: Please report the recorded TGI for COc1cc[c]([Sb]([Br])([CH]=C(C)C)([CH]=C(C)C)[CH]=C(C)C)cc1 .
Result block: > 100 µM

Query block: Need TGI, item Cc1ccc(C(=O)OC(C)C)cc1N=NN(C)C
Result block: > 100 µM

Query block: Need TGI, item C=CC1(c2ccccc2Cl)N/C(=C/OCC)CO1 (stereo unspecified)
Result block: > 100 µM

Query block: Data request, read-out TGI, for COc1ccc(C(=O)Nc2ccc(S(=O)(=O)NCC(=O)O)cc2)cc1
Result block: > 100 µM

Query block: Need TGI of Cc1cccc(Cl)c1NC(N)=S , thanks.
Result block: > 100 µM

Query block: I have this compound here, C=C(CN(C)C)C(=O)c1ccc(C)cc1C , and I need its recorded TGI.
Result block: 14.2 µM

###

- System: SF-268 CNS
- PROTOCOL DETAILS: NCI tumour cell line growth inhibition, 48 h
MEASUREMENT KIND: GI50

Query block: What value of GI50 has been reported for the following compound? O=[N+]([O-])c1cccc(/C=C/c2ccccn2)c1
Result block: 24.7 µM

Query block: Endpoint output: GI50 of C=CC(=O)NCCOc1cccc(Nc2cc(NCCCNC(=O)C3CCC3)c(Br)cn2)c1 . Value?
Result block: 0.482 µM

Query block: Which GI50 value is on record for O=C1OCC2=C1C(c1cccc(C(F)(F)F)c1)c1cc3c(cc1N2CCO)OCO3 (stereo not given) ?
Result block: 4.78 µM

Query block: Entry Cc1cc(S(N)(=O)=O)c(S/C(=N\Nc2ccc([N+](=O)[O-])cc2)c2ccc(O)cc2)cc1Cl has what GI50?
Result block: 2.22 µM

Query block: Need GI50, item COc1nc2c(cc1S(=O)(=O)c1ccccc1)CCc1c-2cnn1Cc1ccccc1
Result block: > 100 µM

###

- Test system: HOP-62 NSCLC
- PROTOCOL DETAILS: NCI tumour cell line growth inhibition, 48 h; in the data active = GI50 below about 0.43 µM; inactive = the rest
Pick one and only one: active, inactive

Query block: What was the test verdict on COc1cccc2c1C(=O)c1c(O)c3c(c(O)c1C2=O)C[C@@](O)(C(=O)CO)C[C@@H]3OC1CC(OC(C)=O)C(OC(C)=O)C(C)O1 (some centres undefined) ?
Result block: active

Query block: State the result this test recorded for NC(=O)c1ccc2nc(-c3ccc(C4(N)CCC4)cc3)c(-c3ccccc3)n2n1 .
Result block: inactive

Query block: For this compound, state the assay outcome: COc1cc(-c2cc(-c3nc4cc(Cl)c(Cl)cc4[nH]3)[nH]n2)cc(OC)c1OC
Result block: inactive

Query block: Look up the recorded call for COc1ccc2c(c1)CC[C@@H]1[C@@H]2CC[C@]2(C)c3[nH]ncc3C[C@@H]12 in this test.
Result block: inactive

Query block: Recorded call for CN1C(=O)N(C)C2C1NN=c1s/c(=C\c3c[nH]c4ccccc34)c(=O)n12 (centres undefined) ?
Result block: active

Query block: Answer briefly: the call reported for COc1nc2c(cc1S(=O)(=O)c1ccccc1)CCc1c-2cnn1Cc1ccccc1 in this assay.
Result block: inactive

Query block: What was the test verdict on CC(C)(C)CC(C)(C)N(CSc1ccc(Cl)cc1)CSc1ccc(Cl)cc1 ?
Result block: inactive

Query block: Dear colleague, could you share the recorded outcome for COc1cc(CNc2nc3cc(N)cc(N)c3nc2-c2ccccc2)cc(OC)c1OC when you have a moment?
Result block: inactive

Query block: What outcome does the record of this test show for COc1ccc2c(O)c(/C=C3\N=Nc4ncccc43)oc2c1C[C@H]1CCNC[C@H]1F ?
Result block: active

These data points were gathered from PubChem BioAssay (NCI).
